Item-by-item account of pIC50
# Tested on: Aβ40
# experiment: In vitro BACE cell-based assay (Aβ40 sandwich ELISA, cells stably expressing APP)
# testConditions: Homo sapiens, HEK293, average IC50, cell assay, HEK cells
pIC50: −log10 of the molar value.
readout: pIC50

> print(dat)
                                    molecule  targetdesc  measuredvalue
 1  NC1=N[C@@]2(COC1)c1cc(-c3cccnc3F)ccc1Oc1cnc([C@@H]3CCCOC3)cc12        Aβ40           8.39
 2  NC1=N[C@@]2(COC1)c1cc(-c3cccnc3F)ccc1Oc1cnc(N3CCC(F)(F)C3)cc12        Aβ40           9.10
 3  NC1=N[C@@]2(COC1)c1cc(-c3cccnc3)ccc1Oc1cnc(-c3ccnc(F)c3)cc12        Aβ40           9.10
 4  CC1(C#Cc2cnc3c(c2)[C@]2(COCC(N)=N2)c2cc(-c4cc(Cl)ccc4F)ccc2O3)COC1        Aβ40           8.92
 5  NC1=N[C@@]2(COC1)c1cc(-c3cncnc3)ccc1Oc1cnc(-c3ccc(F)c(F)c3)cc12        Aβ40           9.10
 6  CC(C)(C)COc1ccc2c(c1)[C@]1(COCC(N)=N1)c1cc(Br)ccc1O2        Aβ40           6.23
 7  NC1=N[C@]2(CCO1)c1cc(-c3cccnc3)ccc1Oc1c(F)cc(C3=CCOCC3)cc12        Aβ40           7.11
 8  COc1cc(F)c2c(c1)[C@]1(COCC(N)=N1)c1cc(N3CCC(F)(F)CC3)ccc1O2        Aβ40           6.38
 9  NC1=N[C@@]2(COC1)c1cc(-c3cccnc3F)ccc1Oc1c(F)cc(C3=CCOCC3)cc12        Aβ40           8.52
10  NC1=N[C@@]2(COC1)c1cc(-c3cccnc3F)ccc1Oc1c(F)cc(C3CCOCC3)cc12        Aβ40           8.62
11  NC1=NC2(CCO1)c1cc(-c3cccnc3)ccc1Oc1cnc(C3=CCOCC3)cc12 (stereo not shown)        Aβ40           8.47
12  NC1=N[C@]2(COC1)c1cc(C3=CCCOC3)ccc1Oc1ccc(-c3cccnc3F)cc12        Aβ40           7.91
13  NC1=N[C@@]2(COC1)c1cc(-c3cccnc3F)ccc1Oc1c(F)cc(N3CCOCC3)cc12 [Example 35A]        Aβ40           8.72
14  NC1=N[C@@]2(CCO1)c1cc(-c3cncc(F)c3)ccc1Oc1cnc(C3=CCCOC3)cc12        Aβ40           8.82
15  NC1=N[C@@]2(CCO1)c1cc(-c3cccnc3F)ccc1Oc1cnc(-c3cncc(F)c3)cc12        Aβ40           8.21
16  NC1=NC2(CCS1)c1cc(-c3cncnc3)ccc1Oc1ccc(-c3cncnc3)cc12        Aβ40           6.20
